Experiment: Cytotoxicity against human HuH7 cells
Type: cell-based, Huh-7

compound	CC50
CC[C@@H](c1ccccc1)N1CN2[C@H]3[C@H](O)[C@@H]4O[C@@H]4/C(=N\OC[C@@H](O)COCc4ccco4)[C@H]3CCN2C1=O	> 50 µM
O=c1n(-c2ccccc2)c(=O)n2n1CC[C@@H]1/C(=N\OC[C@@H](O)COCc3ccco3)[C@H]3O[C@H]3[C@@H](O)C12 (stereo partly specified)	> 50 µM
C#CCCCO/N=C1/[C@H]2CCN3C(=O)N(c4ccccc4)CN3[C@H]2[C@H](O)[C@@H]2O[C@H]12	> 50 µM
CC(=O)OC[C@H]1OC(CCO/N=C2/[C@H]3CCn4c(=O)n(-c5ccccc5)c(=O)n4[C@H]3[C@H](O)[C@@H]3O[C@H]23)C=C[C@@H]1OC(C)=O (stereo partly specified)	9 µM
COc1ccc(O[C@H]2C=C[C@@H](c3ccccc3)O[C@@H]2CO/N=C2/[C@H]3CCn4c(=O)n(-c5ccccc5)c(=O)n4[C@H]3[C@H](O)[C@@H]3O[C@H]23)cc1	18 µM
CCCNC(=O)OC[C@H]1O[C@H](CCO/N=C(\C)CCN2CCc3nc(-c4ccccc4)c(-c4ccccc4)cc3C2)C=C[C@@H]1Oc1ccc(OC)cc1	> 50 µM

---

Assay: Cytotoxicity against human HuH7 cells
Format: cell-based, Huh-7
metric: CC50

molecule	metric	recordedResult
O=C1[C@@]2(CO)C=C(I)C(CC2c2ccccc2)[C@]12CO2 (some centres not stated)	CC50	27.1 µM
C#CCCCO/N=C1/[C@H]2CCN3C(=O)N([C@@H](CC)c4ccccc4)CN3[C@H]2[C@H](O)[C@@H]2O[C@H]12	CC50	> 50 µM
O=C1[C@@]2(CO)C=C(Br)C(CC2c2ccccc2)[C@]12CO2 (some centres not stated)	CC50	> 50 µM
O=C1C2C=C(I)C(CC2OCCCCCCO)[C@]12CO2 (some centres not stated)	CC50	> 50 µM
C[C@@H](O/N=C1\[C@H]2CCn3c(=O)n(-c4ccccc4)c(=O)n3C2[C@H](O)[C@@H]2O[C@H]12)c1cn([C@H](CO)Cc2ccccc2)nn1 (some centres not stated)	CC50	> 50 µM
C=CC[C@@H]1C=C[C@H](O/N=C2\[C@H]3CCn4c(=O)n(-c5ccccc5)c(=O)n4[C@H]3[C@H](O)[C@@H]3O[C@H]23)[C@@H](CO)O1	CC50	35.3 µM
c1ccc(C2NCCc3c2[nH]c2ccccc32)cc1 (configuration not stated)	CC50	> 50 µM
Cc1cc(C)c(-c2cc([C@H](C)O/N=C3\[C@H]4CCn5c(=O)n(-c6ccccc6)c(=O)n5C4[C@H](O)[C@@H]4O[C@H]34)on2)c(C)c1 (some centres not stated)	CC50	19.5 µM
C[C@@]12COC[C@]13C=C(Br)C(C2)[C@]1(CO1)C3=O	CC50	> 50 µM
COc1ccc(O[C@H]2C=C[C@@H](c3ccccc3)O[C@@H]2CO/N=C(\C)CCN2CCc3nc(-c4ccccc4)c(-c4ccccc4)cc3C2)cc1	CC50	> 50 µM
O=C1C2C=C(I)C(CC2c2ccccc2)[C@]12CO2 (some centres not stated)	CC50	> 50 µM
Cc1cc2c(nc1C)CCCN2C[C@H](C)O/N=C1\[C@H]2CCn3c(=O)n(-c4ccccc4)c(=O)n3[C@H]2[C@H](O)[C@@H]2O[C@H]12	CC50	39.3 µM

---

Test system: Hepatitis C virus
Assay: Antiviral activity against HCV replication in human HuH7 cells expressing Rep-Feo replicon by luciferase assay
Format: functional, organism-based, Hepacivirus hominis
Conditions: Huh-7
pEC50: −log10 of the molar value.
Label Not met if pEC50 falls below 5; label Met in every other case.

molecule	targetDesc	labelClass
CC[C@@H](c1ccccc1)N1CN2[C@H]3[C@H](O)[C@@H]4O[C@@H]4/C(=N\OC[C@@H](O)COCc4ccco4)[C@H]3CCN2C1=O	Hepatitis C virus	Met
C#CCCCO/N=C1/C[C@@H](O)[C@@H](O)[C@@H]2[C@@H]3C(=O)N(CCC(=O)OCC)C(=O)[C@@H]3CC[C@@H]12	Hepatitis C virus	Not met
CC(=O)OC[C@H]1OC(CCO/N=C2/[C@H]3CCn4c(=O)n(-c5ccccc5)c(=O)n4[C@H]3[C@H](O)[C@@H]3O[C@H]23)C=C[C@@H]1OC(C)=O (some centres undefined)	Hepatitis C virus	Met
Cc1cc(C)c(-c2cc([C@H](C)O/N=C3\[C@H]4CCn5c(=O)n(-c6ccccc6)c(=O)n5C4[C@H](O)[C@@H]4O[C@H]34)on2)c(C)c1 (some centres undefined)	Hepatitis C virus	Met
O=c1n(-c2ccccc2)c(=O)n2n1CC[C@@H]1/C(=N\OC[C@@H](O)COCc3ccco3)[C@H]3O[C@H]3[C@@H](O)C12 (some centres undefined)	Hepatitis C virus	Met
CCCNC(=O)OC[C@H]1O[C@H](CCO/N=C(\C)CCN2CCc3nc(-c4ccccc4)c(-c4ccccc4)cc3C2)C=C[C@@H]1Oc1ccc(OC)cc1	Hepatitis C virus	Not met
O=C1[C@@]2(CO)C=C(Br)C(CC2c2ccccc2)[C@]12CO2 (some centres undefined)	Hepatitis C virus	Met
C#CCCCO/N=C1/[C@H]2CCN3C(=O)N([C@@H](CC)c4ccccc4)CN3[C@H]2[C@H](O)[C@@H]2O[C@H]12	Hepatitis C virus	Met
O=C1C2C=C(I)C(CC2OCCCCO)[C@]12CO2 (some centres undefined)	Hepatitis C virus	Not met
O=C1C2C=C(I)C(CC2OCCCCCCO)[C@]12CO2 (some centres undefined)	Hepatitis C virus	Not met
CC(=O)OC[C@H]1O[C@@H](O/N=C2/[C@H]3CCn4c(=O)n(-c5ccccc5)c(=O)n4C3[C@H](O)[C@@H]3O[C@H]23)[C@H](OC(C)=O)[C@@H](OC(C)=O)[C@@H]1OC(C)=O (some centres undefined)	Hepatitis C virus	Not met
COc1ccc(O[C@H]2C=C[C@@H](c3ccccc3)O[C@@H]2CO/N=C(\C)CCN2CCc3nc(-c4ccccc4)c(-c4ccccc4)cc3C2)cc1	Hepatitis C virus	Not met
O=C1C2C=C(Br)C(CC2c2ccccc2)[C@]12CO2 (some centres undefined)	Hepatitis C virus	Not met
c1ccc(C2NCCc3c2[nH]c2ccccc32)cc1 (centres undefined)	Hepatitis C virus	Not met

---

Test system: Hepatitis C virus
Assay: Antiviral activity against HCV replication in human HuH7 cells expressing Rep-Feo replicon by luciferase assay
Format: functional, organism-based, Hepacivirus hominis
Conditions: Huh-7
Label Y when EC50 < 4 µM; otherwise N.

molecule	labelClass
O=C1C2C=C(Br)C(CC2OCCCCCCO)[C@]12CO2 (some centres not stated)	N
O=C1C2C=C(I)C(CC2OCCCCO)[C@]12CCCO2 (some centres not stated)	N
C[C@H](O/N=C1\[C@H]2CCn3c(=O)n(-c4ccccc4)c(=O)n3C2[C@H](O)[C@@H]2O[C@H]12)c1cn([C@H](CO)Cc2ccccc2)nn1 (some centres not stated)	N
Cc1cc2c(nc1C)CCCN2C[C@H](C)O/N=C1\[C@H]2CCn3c(=O)n(-c4ccccc4)c(=O)n3[C@H]2[C@H](O)[C@@H]2O[C@H]12	Y
C#CCCCO/N=C1/[C@H]2CCN3C(=O)N(c4ccccc4)CN3[C@H]2[C@H](O)[C@@H]2O[C@H]12	Y
COc1ccc(O[C@H]2C=C[C@@H](c3ccccc3)O[C@@H]2CO/N=C2/[C@H]3CCn4c(=O)n(-c5ccccc5)c(=O)n4[C@H]3[C@H](O)[C@@H]3O[C@H]23)cc1	Y
O=C1[C@@]2(CO)C=C(I)C(CC2c2ccccc2)[C@]12CO2 (some centres not stated)	Y

---

A collection of molecules and their measured pEC50
Test system: Hepatitis C virus
Test: Antiviral activity against HCV replication in human HuH7 cells expressing Rep-Feo replicon by luciferase assay
Type: functional, organism-based, Hepacivirus hominis
Conditions: Huh-7
pEC50: −log10 of the molar value.
metric: pEC50

molecule	recordedResult
O=C1C2C=C(I)C(CC2c2ccccc2)[C@]12CO2 (stereo not given in full)	5.04
C[C@@H](O/N=C1\[C@H]2CCn3c(=O)n(-c4ccccc4)c(=O)n3C2[C@H](O)[C@@H]2O[C@H]12)c1cn([C@H](CO)Cc2ccccc2)nn1 (stereo not given in full)	5.12
C=CC[C@@H]1C=C[C@H](O/N=C2\[C@H]3CCn4c(=O)n(-c5ccccc5)c(=O)n4[C@H]3[C@H](O)[C@@H]3O[C@H]23)[C@@H](CO)O1	5.11
CO[C@]12C=C(Br)C(CC1c1cccc(C)c1)[C@]1(CO1)C2=O (stereo not given in full)	5.10
C[C@@]12COC[C@]13C=C(Br)C(C2)[C@]1(CO1)C3=O	4.90
